conditions: buffer; pH 7.4; 200.0 µM
observed.property: solubility kinetic (µg/mL)
Quick reminder: number only, in µg/mL, skip the unit.

COc1cc2c(cc1/C=C/[N+](=O)[O-])OCO2
6.5
CS(=O)(=O)Nc1ccccc1C(=O)NCCSc1ccc(Cl)cc1
33.8
Cc1c(Cl)cccc1Nc1ncccc1C(=O)O
34

solubility kinetic for O=C(CCc1c[nH]c2ccccc12)NCc1cccc(Cl)c1 is 40.3

Recorded result, Cc1ccccc1C(=O)Nc1cccc(NC(=O)c2cccnc2)c1 , solubility kinetic: 45.8

Value of solubility kinetic reported for the compound CC1CN2C(c3ccc([N+](=O)[O-])cc3)=CSC2=N1 (centres undefined) is 26.3

The reported solubility kinetic of the compound CCOc1ccc(S(=O)(=O)NC2CCCC2)cc1 was 18.3

Noted for CCc1ccc(CNc2ccc3c(c2)ncn3CC)cc1 : its solubility kinetic reads 37.3

Quick note, solubility kinetic for CCOc1ccc(OCCC(=O)Nc2ccc(F)cc2C)cc1 landed at 5

Consider CCC(CC)NC(=O)c1cccc(Br)c1 . Its measured solubility kinetic is 38.1

solubility kinetic in this record for CCOC(=O)c1cc(C)[nH]c1C : 24.7

For this compound ( CC(=O)Nc1ccc2nc(NC(=O)c3cccs3)sc2c1 ), measured solubility kinetic is 3.6

What the record says about CN(C)C(=O)C[n+]1ccc(C(N)=O)cc1.[Cl-] : solubility kinetic is 35.4

// solubility kinetic lookup, compound = CC1CCC(NC(=O)C(Cc2ccccc2)n2cccc2)CC1 (centres undefined) , result: 19.2

Consider Cc1ccc(C(OC(=O)c2ccco2)C(=O)NC2CCCC2)cc1 (centres undefined) . Its measured solubility kinetic is 2

For reference, reported solubility kinetic for O=C(CCc1c[nH]c2ccccc12)NCCc1ccccc1 stands at 28.5

###

conditions: buffer; pH 7.4; 200.0 µM
observed.property: solubility kinetic

COC(=O)CSc1nnc(CNC(=O)c2ccc(OC)c(OC)c2)n1C
> 57.1 µg/mL

O=C(Nc1cccc2cccnc12)c1ccc(Cl)cc1 yielded solubility kinetic of < 0.3 µg/mL

GET /value?item= CC(Sc1nncn1C)C(=O)Nc1ccc2ccccc2c1 (stereo not drawn) &field=solubility kinetic returns > 46.9 µg/mL

###

solubility kinetic values by entry
conditions: buffer; pH 7.4; 200.0 µM

// below: answered compounds
CCN(CC)CCOC(=O)C(c1ccccc1)c1ccccc1.Cl
> 52.2 µg/mL
CC(C)CC1NC(=O)N(CC(=O)N(C)C2CCCCC2)C1=O (centres undefined)
> 46.4 µg/mL
Cc1ccc(NC(=O)C/C(N)=N/O)cc1Cl
> 36.3 µg/mL
COc1ccc2nc(SCCC(=O)O)cc(C)c2c1
> 41.6 µg/mL

Continue with the compound presented below.
The value of solubility kinetic measured for the compound CCc1nc2ccccc2c(C(=O)OCC(=O)NC2CC2)c1C turned out to be > 46.9 µg/mL

###

settings: buffer; pH 7.4; 200.0 µM
Catalogue of solubility kinetic readings, one per entry.

Cc1ccc(NC(=O)Nc2cccc(C)n2)c(C)c1
< 0.2 µg/mL
COC(=O)c1ccc(NC(=O)c2cccnc2)cc1
> 38.4 µg/mL
COc1ccc(CC(=O)OCC(=O)NCc2ccc3c(c2)OCO3)cc1OC
> 58.1 µg/mL
N#Cc1ccccc1NC(=O)CN1C(=O)NC2(CCCC2)C1=O
> 46.8 µg/mL
CC(C)(C)CC(=O)N1CCN(Cc2ccc3c(c2)OCO3)CC1
> 47.8 µg/mL

Here's the next entry for you.
Value of solubility kinetic reported for the molecule COC(=O)c1ccc(COc2ccccc2/C=N/O)o1 is > 41.3 µg/mL

###

conditions: buffer; pH 7.4; 200.0 µM
solubility kinetic by entry:

Examples from the recorded data:
O=C(CN1C(=O)NC2(CCOc3ccccc32)C1=O)c1cccs1 (stereo not drawn)
> 51.4 µg/mL
COc1cc(C(=O)N2CCN(c3ccccn3)CC2)cc(OC)c1OC
> 53.6 µg/mL
CC(c1ccccc1)N1CC(C(=O)Nc2ccc(F)cc2)CC1=O (stereo not drawn)
> 49 µg/mL

Value of solubility kinetic reported for the compound COc1cccc2cc(C(=O)NC(C)c3ccccc3)c(=O)oc12 (stereo not drawn) is < 0.7 µg/mL

The compound CC(C(=O)NC1CCCC1)N1CCN(Cc2ccccc2)CC1 (stereo not drawn) showed solubility kinetic equal to > 47.3 µg/mL

###

settings: buffer; pH 7.4; 200.0 µM
observed.property: solubility kinetic

O=C(Cc1ccccc1)N/N=C/c1ccc[nH]1
> 34.1 µg/mL
Cc1c(C)n(O)c2ccc3nonc3c12
> 30.5 µg/mL

Now examine the next entry.
// recorded solubility kinetic for O=C(O)c1cc2nccc(-c3ccco3)n2n1 : > 34.4 µg/mL

###

conditions: buffer; pH 7.4; 200.0 µM
observed.property: solubility kinetic

Recorded solubility kinetic, per entry:
CC(C(=O)N1CCOCC1)n1cc([N+](=O)[O-])cn1 (centres undefined)
> 0.0381 mg/mL
CC(=O)c1ccc(NCCC(=O)c2ccccc2)cc1
< 0.0006 mg/mL
O=C(CSc1nccc(=O)[nH]1)N1CCOCC1
> 0.0383 mg/mL
COc1cc(C2SCC(=O)N2Cc2ccccc2)ccc1O (centres undefined)
> 0.0473 mg/mL
COc1ccc(N(C(C)C(=O)N2CCCC2)S(C)(=O)=O)cc1 (centres undefined)
> 0.049 mg/mL

# solubility kinetic (molecule: COC(=O)c1ccc(N2CCN(C)CC2)c(NC(=O)c2cccs2)c1 ) is > 0.0539 mg/mL

Given item CCC(OCC(O)CN1CCCCC1)c1ccccc1.Cl (centres undefined) , the value recorded as its solubility kinetic is > 0.0471 mg/mL

response.value for COc1ccc(Cl)cc1NC(=O)CSc1cccc[n+]1[O-] (field: solubility kinetic) = > 0.0487 mg/mL

GET /value?item= CN(C)C(=O)CSc1nc2ccc(N3C(=O)c4ccccc4C3=O)cc2s1 &field=solubility kinetic returns 0.0031 mg/mL

Reported solubility kinetic of Cc1ccccc1COC(=O)c1cc([N+](=O)[O-])ccc1N1CCOCC1 : 0.0058 mg/mL

Lab note: measured solubility kinetic of Nc1ccc(Sc2ccccc2)nc1 was > 0.0303 mg/mL

###

conditions: buffer; pH 7.4; 200.0 µM
observed.property: solubility kinetic

Solved cases (5 shown):
CC(=O)N1CCc2cc(S(=O)(=O)N3CCCCC3C)ccc21 (stereo unspecified)
9.4 µg/mL
CCOC(=O)N1CCN(C(=O)C(C)NC(=O)c2ccco2)CC1 (stereo unspecified)
44.3 µg/mL
COc1cc(C2NC(=O)NC(C)=C2C(C)=O)cc(OC)c1OC (stereo unspecified)
38.7 µg/mL
Cc1cccc(-c2noc(-c3ccc4c(c3)OCO4)n2)c1
< 0.3 µg/mL
Cc1ccc(C(=O)C2=C(O)C(=O)N(Cc3ccco3)C2c2ccc(N(C)C)cc2)o1 (stereo unspecified)
> 61 µg/mL

Note to self: solubility kinetic recorded for COc1cccc(-c2ocnc2C(=O)Nc2ccc3c(c2)CCC3)c1 was < 0.4 µg/mL

###

settings: buffer; pH 7.4; 200.0 µM
Measured solubility kinetic accompanies every entry in the list below.

O=C(c1ccncc1)N1CCN(CCc2ccccc2)CC1
> 44.3 µg/mL
Cc1oc(S(=O)(=O)N(C)C)cc1C(=O)Nc1ccc(Cl)cc1
< 0.4 µg/mL

Attention now shifts to the item below.
Measured solubility kinetic, CCOc1ccc(N/C=C/C(=O)c2cc(OC)c(OC)c(OC)c2)cc1 : < 0.8 µg/mL

###

Each entry below carries its recorded solubility kinetic.
details: buffer; pH 7.4; 200.0 µM

Solved cases (5 shown):
CCCn1c(=O)c(C(=O)NCc2ccco2)c(O)c2ccccc21
< 0.3 µg/mL
CSc1ccc(CNCC(O)c2ccccc2)cc1.Cl (stereo not drawn)
> 46.5 µg/mL
CC(C)(C)OC(=O)N1Cc2[nH]c3ccccc3c2C[C@@H]1C(=O)O
> 47.5 µg/mL
CN(CC(O)CN1CCOCC1)S(=O)(=O)[O-].[Na+] (stereo not drawn)
> 41.4 µg/mL
CCN(C(=O)CSc1ccccn1)C1CCCCC1
> 41.8 µg/mL

Consider O=C(NCCc1ccccc1)C1CCC(=O)N1C1CCCC1 (stereo not drawn) . Its measured solubility kinetic is > 45.1 µg/mL

solubility kinetic measured on CC12CCC(=O)N1C(C(=O)Nc1ccc(F)cc1)CS2 (stereo not drawn) = > 44.2 µg/mL

For reference, reported solubility kinetic for COc1ccc(N2CC(C(=O)Nc3ccncc3)CC2=O)cc1 (stereo not drawn) stands at > 46.7 µg/mL

solubility kinetic for Oc1ccc(N2CCN(CC(O)c3ccccc3)CC2)cc1 (stereo not drawn) is > 44.8 µg/mL

Consider Cc1ccccc1Nc1ncnc2c1cnn2C . Its measured solubility kinetic is > 35.9 µg/mL

O=c1[nH]c(=S)n(Cc2ccc(F)cc2)c(O)c1C=NCCCn1ccnc1 has a reported solubility kinetic of > 58.1 µg/mL

// field: solubility kinetic; key: CCOC(=O)Cc1csc(CC(N)=O)[nH+]1.[Cl-] ; value = > 39.7 µg/mL

Just so you know, measured solubility kinetic for O=S(=O)(c1ccccc1)N(Cc1ccccn1)Cc1ccccn1 came out at > 50.9 µg/mL
